Experiment: Plasma pharmacokinetics after a single intraperitoneal dose
Type: in vivo, male CD1 mice
Conditions: male, CD1, mouse, plasma, intraperitoneal, 10 mg/kg, 10 mg/kg IP, 0.25 hr; read-out: Plasma Concentration, individual animal
Method: The objective of this example was to investigate the plasma pharmacokinetics of UPHH-000171 following a single intraperitoneal dose administration to male CD1 mice at 10 and 50 mg/kg. Eighteen male mice were divided in to two groups with nine animals in each group, Animals in Group 1 and Group 2 were administered with solution formulation of UPHH-000171 in 5% NMP, 25% Solutol HS-15 and 70% normal saline intraperitoneally at 10 and 50 mg/kg dose, respectively. […]
measured.endpoint: concentration at 0.25 hr (ng/mL)
Express the result in ng/mL but write the number alone.

What the record says about COc1ccc(Cn2ccc3ccc(C(=O)NS(C)(=O)=O)cc32)cc1 [UPHH-000171] : concentration at 0.25 hr is 33000
